Where these numbers come from: the kinase profiling compilation of Christmann-Franck et al. (2016)

- SYSTEM TESTED: UniProt Q9NQU5
- Sequence (Q9NQU5 whole entry, looked up): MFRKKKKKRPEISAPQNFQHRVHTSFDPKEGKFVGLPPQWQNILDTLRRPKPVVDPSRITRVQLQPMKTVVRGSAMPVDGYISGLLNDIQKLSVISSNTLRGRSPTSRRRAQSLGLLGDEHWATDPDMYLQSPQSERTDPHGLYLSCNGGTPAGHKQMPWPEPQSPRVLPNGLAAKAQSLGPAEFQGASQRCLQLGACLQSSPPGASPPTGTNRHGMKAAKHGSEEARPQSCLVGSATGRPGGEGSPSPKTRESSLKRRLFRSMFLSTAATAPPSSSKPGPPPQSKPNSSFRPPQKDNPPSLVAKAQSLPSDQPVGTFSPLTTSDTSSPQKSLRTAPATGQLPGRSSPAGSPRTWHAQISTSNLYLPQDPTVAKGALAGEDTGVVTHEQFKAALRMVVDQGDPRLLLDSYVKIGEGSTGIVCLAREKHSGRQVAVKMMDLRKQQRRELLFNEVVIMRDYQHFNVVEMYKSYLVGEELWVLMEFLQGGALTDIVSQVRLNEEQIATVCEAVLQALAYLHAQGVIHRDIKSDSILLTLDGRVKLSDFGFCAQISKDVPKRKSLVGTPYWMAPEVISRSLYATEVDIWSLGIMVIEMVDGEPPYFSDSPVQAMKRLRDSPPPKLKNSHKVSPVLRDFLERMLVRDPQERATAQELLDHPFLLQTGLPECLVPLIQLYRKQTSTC
- MEASUREMENT DESCRIPTION: radiometric filter-binding kinase assay, Kinase HotSpot
- TEST CONTEXT: compound 0.5 µM; ATP 10 µM
Known residual activity of a selection of compounds
Express your answer in %, writing the number without its unit.

- COMPOUND: "CCCNC(=O)Nc1ccc(Oc2ncnc3cc(OC)c(OC)cc23)cc1Cl"
  SYSTEM TESTED: "UniProt Q9NQU5"
  UNITS OF MEASURE: "%"
  READING: 106

Problem: Please look up its residual activity: C#Cc1cccc(Nc2ncnc3cc(OCCOC)c(OCCOC)cc23)c1
Result: 104

Problem: Same question for Cc1cc2ncc(-c3ccccc3)nc2cc1C please.
Result: 97.4

Problem: Same question for Cc1ccc(NC(=O)c2ccc(CN3CCN(C)CC3)cc2)cc1Nc1nc(-c2cccnc2)cs1 please.
Result: 101

###

- SYSTEM TESTED: MLTK (human) (UniProt Q9NYL2)
- Sequence (Q9NYL2 whole entry, looked up): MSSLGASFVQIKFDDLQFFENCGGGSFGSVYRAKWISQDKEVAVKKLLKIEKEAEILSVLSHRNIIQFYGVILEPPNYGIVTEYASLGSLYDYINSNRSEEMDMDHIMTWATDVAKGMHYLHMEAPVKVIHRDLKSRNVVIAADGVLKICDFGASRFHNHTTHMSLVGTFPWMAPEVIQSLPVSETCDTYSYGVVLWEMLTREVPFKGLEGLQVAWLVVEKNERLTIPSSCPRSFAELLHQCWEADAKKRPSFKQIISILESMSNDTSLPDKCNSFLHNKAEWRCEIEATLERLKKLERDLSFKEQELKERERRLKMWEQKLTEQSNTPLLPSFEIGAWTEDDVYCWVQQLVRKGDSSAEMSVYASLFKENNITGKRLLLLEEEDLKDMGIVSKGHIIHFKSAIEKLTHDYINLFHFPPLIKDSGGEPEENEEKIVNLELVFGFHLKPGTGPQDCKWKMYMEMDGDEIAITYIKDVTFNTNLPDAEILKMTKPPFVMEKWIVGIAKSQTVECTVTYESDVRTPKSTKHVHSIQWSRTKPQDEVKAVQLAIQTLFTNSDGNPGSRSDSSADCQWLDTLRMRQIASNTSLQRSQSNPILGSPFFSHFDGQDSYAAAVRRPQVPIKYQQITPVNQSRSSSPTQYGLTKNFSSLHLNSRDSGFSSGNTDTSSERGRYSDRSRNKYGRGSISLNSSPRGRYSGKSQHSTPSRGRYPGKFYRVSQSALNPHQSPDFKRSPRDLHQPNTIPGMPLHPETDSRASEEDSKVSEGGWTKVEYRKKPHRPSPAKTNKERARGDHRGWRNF
- MEASUREMENT DESCRIPTION: radiometric filter-binding kinase assay, Kinase HotSpot
- TEST CONTEXT: compound 0.5 µM; ATP 10 µM
VALUE TYPE: residual activity (%)
Express your answer in %, writing the number without its unit.

- COMPOUND: "O=C(Nc1ccc(Cl)cc1)c1ccccc1NCc1ccncc1"
  SYSTEM TESTED: "MLTK (human) (UniProt Q9NYL2)"
  UNITS OF MEASURE: "%"
  residual activity: 86
- COMPOUND: "O=C(NC(NC(=S)Nc1ccc(F)c([N+](=O)[O-])c1)C(Cl)(Cl)Cl)C(c1ccccc1)c1ccccc1 (stereo not drawn)"
  SYSTEM TESTED: "MLTK (human) (UniProt Q9NYL2)"
  UNITS OF MEASURE: "%"
  residual activity: 98.6

Problem: Please look up its residual activity: CC(C)n1cnc2c(Nc3cccc(Cl)c3)nc(NCCO)nc21
Result: 96.6

###

Known residual activity of a selection of compounds
- SYSTEM TESTED: STK25 (human) (UniProt O00506)
- Sequence (O00506 whole entry, looked up): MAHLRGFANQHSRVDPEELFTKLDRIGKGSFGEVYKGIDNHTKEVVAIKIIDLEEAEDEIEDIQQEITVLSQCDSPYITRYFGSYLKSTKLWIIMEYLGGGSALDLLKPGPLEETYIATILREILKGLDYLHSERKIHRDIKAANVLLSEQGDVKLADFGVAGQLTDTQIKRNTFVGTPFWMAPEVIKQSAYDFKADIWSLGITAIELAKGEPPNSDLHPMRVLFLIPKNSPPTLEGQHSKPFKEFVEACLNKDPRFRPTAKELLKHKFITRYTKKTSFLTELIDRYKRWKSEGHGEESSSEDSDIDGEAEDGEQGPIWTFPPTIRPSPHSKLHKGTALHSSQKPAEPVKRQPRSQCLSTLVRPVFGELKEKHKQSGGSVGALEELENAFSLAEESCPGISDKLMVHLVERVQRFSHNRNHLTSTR
- MEASUREMENT DESCRIPTION: radiometric filter-binding kinase assay, Kinase HotSpot
- TEST CONTEXT: compound 0.5 µM; ATP 10 µM
Express your answer in %, writing the number without its unit.

- RECORD SMILES: "O=C1Nc2ccccc2/C1=C\\c1c(Cl)[nH]c2ccccc12"
  VALUE TYPE: "residual activity"
  READING: 97.7
- RECORD SMILES: "CCCNC(=O)Nc1ccc(Oc2ncnc3cc(OC)c(OC)cc23)cc1Cl"
  VALUE TYPE: "residual activity"
  READING: 92.6

Problem: Please look up its residual activity: O=C1Nc2cc(Br)ccc2/C1=C1/Nc2ccccc2/C1=N\O
Result: 96.3

Problem: Same question for O=C1Cc2c([nH]c3ccc([N+](=O)[O-])cc23)-c2ccccc2N1 please.
Result: 83.6

###

- SYSTEM TESTED: MST4 (human) (UniProt Q9P289)
- Sequence (Q9P289 whole entry, looked up): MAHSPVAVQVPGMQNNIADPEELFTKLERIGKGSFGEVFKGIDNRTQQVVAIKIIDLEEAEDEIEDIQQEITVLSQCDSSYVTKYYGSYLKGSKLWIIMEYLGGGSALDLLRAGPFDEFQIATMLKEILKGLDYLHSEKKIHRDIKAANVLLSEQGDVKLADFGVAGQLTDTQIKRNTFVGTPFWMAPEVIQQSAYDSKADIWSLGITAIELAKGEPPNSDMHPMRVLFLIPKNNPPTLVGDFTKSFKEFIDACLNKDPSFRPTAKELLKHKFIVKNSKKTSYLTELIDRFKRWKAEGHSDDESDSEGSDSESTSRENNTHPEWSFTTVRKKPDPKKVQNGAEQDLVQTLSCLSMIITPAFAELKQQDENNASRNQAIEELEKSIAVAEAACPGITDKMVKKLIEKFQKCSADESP
- MEASUREMENT DESCRIPTION: radiometric filter-binding kinase assay, Kinase HotSpot
- TEST CONTEXT: compound 0.5 µM; ATP 10 µM
VALUE TYPE: residual activity (%)
Express your answer in %, writing the number without its unit.

Worked cases, residual activity given:
- COMPOUND: "O=C1Cc2c([nH]c3ccc([N+](=O)[O-])cc23)-c2ccccc2N1"
  residual activity (%): 78.6
- COMPOUND: "Cc1cc2ncc(-c3ccccc3)nc2cc1C"
  residual activity (%): 97.6
- COMPOUND: "CC(C)(C)c1nc2c3ccc(F)cc3c3c(=O)[nH]ccc3c2[nH]1"
  residual activity (%): 70.9
- COMPOUND: "CC(C)n1cnc2c(Nc3cccc(Cl)c3)nc(NCCO)nc21"
  residual activity (%): 87.9
- COMPOUND: "CSc1nc(-c2ccc(F)cc2)c(-c2ccnc(NC(C)c3ccccc3)c2)[nH]1 (stereo unspecified)"
  residual activity (%): 101

Problem: Please look up its residual activity: CCN1/C(=C/C(C)=O)Sc2ccc(OC)cc21
Result: 87.9

###

- SYSTEM TESTED: STK24 (human)
- MEASUREMENT DESCRIPTION: radiometric filter-binding kinase assay, Kinase HotSpot
- TEST CONTEXT: compound 0.5 µM; ATP 10 µM
VALUE TYPE: residual activity (%)
Express your answer in %, writing the number without its unit.

Worked cases, residual activity given:
- COMPOUND: "O=c1cc(N2CCNCC2)oc2c(-c3ccccc3)cccc12"
  residual activity, %: 89.6
- COMPOUND: "CC(C)[C@H](CO)Nc1nc(Nc2cccc(Cl)c2)c2ncn(C(C)C)c2n1"
  residual activity, %: 80.8
- COMPOUND: "CCCNC(=O)Nc1ccc(Oc2ncnc3cc(OC)c(OC)cc23)cc1Cl"
  residual activity, %: 91.7
- COMPOUND: "Oc1ccc(-c2nc(-c3ccc(F)cc3)c(-c3ccncc3)[nH]2)cc1"
  residual activity, %: 95.2
- COMPOUND: "CSc1nc(-c2ccc(F)cc2)c(-c2ccnc(NC(C)c3ccccc3)c2)[nH]1 (stereo unspecified)"
  residual activity, %: 113

Problem: Please look up its residual activity: O=C1Nc2cc(Br)ccc2/C1=C1/Nc2ccccc2/C1=N\O
Result: 90.9

Problem: Same question for Cc1cc2ncc(-c3ccccc3)nc2cc1C please.
Result: 94.5

Problem: Same question for CC(C)n1cnc2c(Nc3cccc(Cl)c3)nc(NCCO)nc21 please.
Result: 87.7

Problem: Same question for O=C1Cc2c([nH]c3ccc([N+](=O)[O-])cc23)-c2ccccc2N1 please.
Result: 66.4

Problem: Same question for O=C(Nc1ccc(Cl)cc1)c1ccccc1NCc1ccncc1 please.
Result: 92.6

Problem: Same question for NC(=O)c1ccc(N(C(N)=O)c2c(F)cccc2F)nc1-c1ccc(F)cc1F please.
Result: 105

Problem: Same question for O=c1cc(-c2cccc3c2Sc2ccccc2S3)oc(N2CCOCC2)c1 please.
Result: 97.8

Problem: Same question for CS(=O)c1ccc(-c2nc(-c3ccc(F)cc3)c(-c3ccncc3)[nH]2)cc1 (stereo unspecified) please.
Result: 99

###

- SYSTEM TESTED: TAOK3 (human) (UniProt Q9H2K8)
- Sequence (Q9H2K8 whole entry, looked up): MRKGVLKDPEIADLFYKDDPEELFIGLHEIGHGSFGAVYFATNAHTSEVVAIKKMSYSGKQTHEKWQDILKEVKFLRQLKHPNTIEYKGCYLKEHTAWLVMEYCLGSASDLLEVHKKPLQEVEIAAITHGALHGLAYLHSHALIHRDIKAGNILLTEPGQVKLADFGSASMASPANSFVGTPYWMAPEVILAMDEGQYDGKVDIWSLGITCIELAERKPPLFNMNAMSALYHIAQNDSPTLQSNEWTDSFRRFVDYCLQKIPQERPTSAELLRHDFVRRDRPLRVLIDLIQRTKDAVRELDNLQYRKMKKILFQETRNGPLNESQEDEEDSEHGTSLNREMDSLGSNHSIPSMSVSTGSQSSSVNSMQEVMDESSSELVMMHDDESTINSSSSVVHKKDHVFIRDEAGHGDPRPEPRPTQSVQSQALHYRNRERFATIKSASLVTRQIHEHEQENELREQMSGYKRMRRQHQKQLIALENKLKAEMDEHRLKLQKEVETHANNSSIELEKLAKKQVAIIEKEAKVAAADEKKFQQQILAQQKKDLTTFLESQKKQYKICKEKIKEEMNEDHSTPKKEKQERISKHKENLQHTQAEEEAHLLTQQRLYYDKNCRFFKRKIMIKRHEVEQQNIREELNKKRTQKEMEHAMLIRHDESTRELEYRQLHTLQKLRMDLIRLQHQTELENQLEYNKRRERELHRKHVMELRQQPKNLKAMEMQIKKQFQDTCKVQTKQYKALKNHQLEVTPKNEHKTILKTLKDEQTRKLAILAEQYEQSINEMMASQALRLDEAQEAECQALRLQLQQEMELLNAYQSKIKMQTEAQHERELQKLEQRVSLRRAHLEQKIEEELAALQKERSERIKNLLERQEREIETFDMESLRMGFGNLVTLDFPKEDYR
- MEASUREMENT DESCRIPTION: radiometric filter-binding kinase assay, Kinase HotSpot
- TEST CONTEXT: compound 0.5 µM; ATP 10 µM
Known residual activity of a selection of compounds
Express your answer in %, writing the number without its unit.

- RECORD SMILES: "Nc1nc(Nc2ccc(S(N)(=O)=O)cc2)nn1C(=S)Nc1c(F)cccc1F"
  SYSTEM TESTED: "TAOK3 (human) (UniProt Q9H2K8)"
  UNITS OF MEASURE: "%"
  residual activity: 10

Problem: Please look up its residual activity: O=C(Nc1ccc(Cl)cc1)c1ccccc1NCc1ccncc1
Result: 94.1

Problem: Same question for O=C1Cc2c([nH]c3ccc([N+](=O)[O-])cc23)-c2ccccc2N1 please.
Result: 76.7

Problem: Same question for CCCNC(=O)Nc1ccc(Oc2ncnc3cc(OC)c(OC)cc23)cc1Cl please.
Result: 95.9

Problem: Same question for O=c1cc(-c2cccc3c2Sc2ccccc2S3)oc(N2CCOCC2)c1 please.
Result: 115

Problem: Same question for CC(C)(C)c1nc2c3ccc(F)cc3c3c(=O)[nH]ccc3c2[nH]1 please.
Result: 50.3

###

- SYSTEM TESTED: NEK1 (human) (UniProt Q96PY6)
- Sequence (Q96PY6 whole entry, looked up): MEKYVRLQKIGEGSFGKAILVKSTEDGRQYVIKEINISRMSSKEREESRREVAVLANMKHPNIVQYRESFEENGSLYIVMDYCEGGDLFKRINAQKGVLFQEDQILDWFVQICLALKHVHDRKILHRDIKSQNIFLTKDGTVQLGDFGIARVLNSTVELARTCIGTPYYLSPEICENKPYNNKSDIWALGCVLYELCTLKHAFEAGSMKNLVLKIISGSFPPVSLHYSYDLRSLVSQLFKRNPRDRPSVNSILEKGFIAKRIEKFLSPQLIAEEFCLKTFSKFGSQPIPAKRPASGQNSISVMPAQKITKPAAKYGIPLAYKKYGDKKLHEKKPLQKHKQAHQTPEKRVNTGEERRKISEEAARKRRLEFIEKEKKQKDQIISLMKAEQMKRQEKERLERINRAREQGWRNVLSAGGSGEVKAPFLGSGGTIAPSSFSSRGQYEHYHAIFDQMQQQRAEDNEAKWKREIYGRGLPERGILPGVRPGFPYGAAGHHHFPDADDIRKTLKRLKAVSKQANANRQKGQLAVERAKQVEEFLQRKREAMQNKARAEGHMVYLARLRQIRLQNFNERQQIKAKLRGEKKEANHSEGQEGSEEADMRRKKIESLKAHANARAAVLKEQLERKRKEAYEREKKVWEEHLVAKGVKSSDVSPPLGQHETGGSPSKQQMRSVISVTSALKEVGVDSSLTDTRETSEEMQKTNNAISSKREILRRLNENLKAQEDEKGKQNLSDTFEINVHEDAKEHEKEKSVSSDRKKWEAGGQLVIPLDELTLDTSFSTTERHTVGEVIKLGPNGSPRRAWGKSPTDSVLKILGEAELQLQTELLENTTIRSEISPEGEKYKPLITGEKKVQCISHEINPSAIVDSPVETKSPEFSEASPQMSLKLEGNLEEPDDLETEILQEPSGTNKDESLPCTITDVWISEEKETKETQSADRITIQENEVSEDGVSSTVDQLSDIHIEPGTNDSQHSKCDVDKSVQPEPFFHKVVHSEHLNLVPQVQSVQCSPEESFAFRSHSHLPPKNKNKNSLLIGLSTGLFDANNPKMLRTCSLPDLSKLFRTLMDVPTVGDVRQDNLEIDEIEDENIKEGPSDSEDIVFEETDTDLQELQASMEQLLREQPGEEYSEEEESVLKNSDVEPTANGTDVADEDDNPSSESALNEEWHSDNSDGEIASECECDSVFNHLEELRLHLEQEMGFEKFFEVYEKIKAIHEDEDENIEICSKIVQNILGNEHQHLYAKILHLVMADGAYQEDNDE
- MEASUREMENT DESCRIPTION: radiometric filter-binding kinase assay, Kinase HotSpot
- TEST CONTEXT: compound 0.5 µM; ATP 10 µM
VALUE TYPE: residual activity (%)
Express your answer in %, writing the number without its unit.

Worked cases, residual activity given:
- COMPOUND: "C#Cc1cccc(Nc2ncnc3cc(OCCOC)c(OCCOC)cc23)c1"
  READING: 73.8
- COMPOUND: "CC(C)[C@H](CO)Nc1nc(Nc2cccc(Cl)c2)c2ncn(C(C)C)c2n1"
  READING: 107
- COMPOUND: "O=C(NC(NC(=S)Nc1ccc(F)c([N+](=O)[O-])c1)C(Cl)(Cl)Cl)C(c1ccccc1)c1ccccc1 (stereo not given)"
  READING: 101
- COMPOUND: "CS(=O)c1ccc(-c2nc(-c3ccc(F)cc3)c(-c3ccncc3)[nH]2)cc1 (stereo not given)"
  READING: 94.7

Problem: Please look up its residual activity: Clc1ccc(Nc2nnc(Cc3ccncc3)c3ccccc23)cc1
Result: 75.3

###

- SYSTEM TESTED: EPHB2 (human)
- MEASUREMENT DESCRIPTION: radiometric filter-binding kinase assay, Kinase HotSpot
- TEST CONTEXT: compound 0.5 µM; ATP 10 µM
VALUE TYPE: residual activity (%)
Express your answer in %, writing the number without its unit.

- RECORD SMILES: "C#Cc1cccc(Nc2ncnc3cc(OCCOC)c(OCCOC)cc23)c1"
  UNITS OF MEASURE: "%"
  READING: 95.1

Problem: What is its residual activity for EPHB2 (human)? Entry: O=C1Cc2c([nH]c3ccc([N+](=O)[O-])cc23)-c2ccccc2N1
Result: 101

Problem: Same question for Oc1ccc(-c2nc(-c3ccc(F)cc3)c(-c3ccncc3)[nH]2)cc1 please.
Result: 105

Problem: Same question for COc1cc2ncnc(Nc3ccc(F)c(Cl)c3)c2cc1OCCCN1CCOCC1 please.
Result: 87.7

Problem: Same question for O=C1Nc2ccccc2/C1=C\c1c(Cl)[nH]c2ccccc12 please.
Result: 94.2

Problem: Same question for Cc1cc2ncc(-c3ccccc3)nc2cc1C please.
Result: 96.7
